- Experiment notes: T. gondii ME49Luc in HeLa cells, luciferase assay, 72 h, no IFN-y (AID 1259421)
- Assay context: stronger effect = lower value, concentration not given here
In all, about 6,400 compounds went through this assay and about 610 (9.5%) were called active. The entries come from a sample that favours actives as a whole.
Experimental endpoint: activity change, negative = inhibition

INSERT INTO assay_data (compound, result) VALUES
  ('Oc1ccc2c(c1)OCC1(O)Cc3cc(O)c(O)cc3C21 (stereo unspecified)', '-0.693% (inactive)'),
  ('S=c1nc[nH]c2nc[nH]c12', '-59.8% (inactive)'),
  ('O=C(Nc1cc(C(F)(F)F)cc(C(F)(F)F)c1)c1cc(Cl)ccc1O', '-83.9% (active)'),
  ('O=C(O)c1cc(O)c2c(c1)C(=O)c1cccc(O)c1C2=O', '18.1% (inactive)'),
  ('Cc1nnc(SCC2=C(C(=O)O)N3C(=O)[C@@H](N)[C@H]3SC2)s1', '2.53% (inactive)'),
  ('CCNC(=O)c1noc(-c2cc(C(C)C)c(O)cc2O)c1-c1ccc(CN2CCOCC2)cc1', '-87.9% (active)'),
  ('N#C/C(=C/c1ccc(O)c(O)c1)C(=O)NCc1ccccc1', '27.2% (inactive)'),
  ('C[C@H](NC(=O)[C@@H](O)c1cc(F)cc(F)c1)C(=O)N[C@@H]1C(=O)N(C)c2ccccc2-c2ccccc21', '26.6% (inactive)'),
  ('Cc1onc(-c2ccccc2)c1C(=O)N[C@@H]1C(=O)N2[C@@H](C(=O)O)C(C)(C)S[C@@H]12', '3.42% (inactive)'),
  ('Oc1ccc([C@@H]2Oc3ccc(O)cc3[C@@H]3CCC[C@@H]32)cc1', '6.56% (inactive)'),
  ('CC(C)[C@H](C(=O)Nc1ccc(C(=O)NO)cc1)c1ccccc1', '-78.5% (active)'),
  ('O[C@@H]1[C@H](O)[C@@H](CCl)O[C@H]1n1cnc2c(NC3CC4CCC3C4)ncnc21 (stereo partly specified)', '20.5% (inactive)'),
  ('O=C(O)CC/C=C/CC1COC(c2ccccc2Cl)OC1c1ccccc1O (stereo unspecified)', '11.4% (inactive)'),
  ('O=Cc1ccc(CO)o1', '3.95% (inactive)'),
  ('C[C@H](NC(=O)Cc1cc(F)cc(F)c1)C(=O)N[C@@H]1C(=O)N(C)c2ccccc2-c2ccccc21', '-81.4% (active)'),
  ('Nc1nc(=S)c2[nH]cnc2[nH]1', '-77.5% (active)'),
  ('O=C(O)c1ccc(NC(=O)[C@H](Cc2ccc(O)cc2)NC(=O)c2ccccc2)cc1', '10.1% (inactive)'),
  ('O=c1oc2cc(O)ccc2c2oc3cc(O)ccc3c12', '13.4% (inactive)'),
  ('CC1(C)S[C@H]2[C@@H](NC(=O)[C@@H](NC(=O)N3CCN(S(C)(=O)=O)C3=O)c3ccccc3)C(=O)N2[C@@H]1C(=O)O', '5.45% (inactive)'),
  ('CC(=O)Nc1ccc(C(=O)O)cc1', '5.72% (inactive)'),
  ('C1CCN2C[C@@H]3C[C@H](CN4CCCC[C@@H]34)[C@H]2C1', '13.5% (inactive)');

###

- Experiment notes: T. gondii ME49Luc in HeLa cells, luciferase assay, 72 h, no IFN-y (AID 1259421)
- Assay context: stronger effect = lower value, concentration not given here
The campaign covered roughly 6,400 compounds. About 610 (9.5%) were called active. For the sample, actives were picked, then their nearest neighbours and some compounds at random.
# maps each entry to its activity change, negative = inhibition
Experimental endpoint: activity change, negative = inhibition (%)

INSERT INTO measurements (compound, numeric_value) VALUES
  ('CC[C@@H](C(=O)O)[C@@H]1O[C@@H]([C@@H](C)[C@H](O)[C@H](C)C(=O)[C@H](CC)[C@H]2O[C@]3(C=C[C@@H](O)[C@]4(CC[C@@](C)(C5CC[C@](O)(CC)[C@H](C)O5)O4)O3)[C@H](C)C[C@@H]2C)[C@@H](C)C[C@H]1C (some centres not stated)', -82.4),
  ('CC[C@@H](C(=O)[C@@H](C)[C@@H](O)[C@H](C)[C@@H]1O[C@@H]([C@@H](CC)C(=O)O)CC[C@@H]1C)[C@H]1OC2(C=C[C@@H](O)[C@]3(CC[C@@](C)(C4CC[C@](O)(CC)[C@H](C)O4)O3)O2)[C@H](C)C[C@@H]1C (some centres not stated)', -90.6);
